Measured Target: Serine protease 1 (Bos taurus)
Sequence (P00760 whole entry): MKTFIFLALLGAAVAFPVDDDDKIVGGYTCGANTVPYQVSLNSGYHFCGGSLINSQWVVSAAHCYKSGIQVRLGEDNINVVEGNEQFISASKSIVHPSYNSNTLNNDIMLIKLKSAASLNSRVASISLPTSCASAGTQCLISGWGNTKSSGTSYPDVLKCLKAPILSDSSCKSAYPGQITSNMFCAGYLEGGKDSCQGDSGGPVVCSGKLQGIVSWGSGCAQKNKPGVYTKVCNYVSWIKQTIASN
Assay Overview: Inhibitory activity against Trypsin
Measurement Type: Ki (µM)

• Cc1ccc(NS(=O)(=O)Cc2ccccc2)c(=O)n1CC(=O)NCC1CCc2nn(C)cc2C1 (configuration not stated) = 557
• Cc1ccc(NS(=O)(=O)Cc2ccccc2)c(=O)n1CC(=O)NC1CCc2nn(C)cc2C1 (configuration not stated) = 807
